biological target: YOD1 (UniProt Q5VVQ6); test: log2 ratio of Biotin-Ahx-Ub-VS probe labelling (fragment/DMSO); higher = less target engagement (more negative = stronger competition), active = hit call of the paper (q ≤ 0.05, log2 ratio ≤ -1); details: compound concentration: 200 uM; treatment time: 3 h
Sequence (Q5VVQ6 whole entry, the tested form may be a part): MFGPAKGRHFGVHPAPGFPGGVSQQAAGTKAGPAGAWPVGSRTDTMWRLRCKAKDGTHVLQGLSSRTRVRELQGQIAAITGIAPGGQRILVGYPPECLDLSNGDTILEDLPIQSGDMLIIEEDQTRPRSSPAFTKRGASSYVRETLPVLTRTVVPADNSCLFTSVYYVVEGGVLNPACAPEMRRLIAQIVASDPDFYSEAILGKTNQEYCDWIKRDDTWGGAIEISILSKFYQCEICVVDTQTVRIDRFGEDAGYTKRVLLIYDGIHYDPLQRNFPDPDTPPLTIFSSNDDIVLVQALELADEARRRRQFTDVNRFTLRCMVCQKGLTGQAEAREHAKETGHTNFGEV
Below is a list of entries, each paired with its recorded log2 ratio of Biotin-Ahx-Ub-VS probe labelling value.
endpoint.name: log2 ratio of Biotin-Ahx-Ub-VS probe labelling

# molecule, result
data = [
    ("CN(C)C(=O)c1ccc(CNC(=O)CCl)cc1", 0.0763),
    ("O=C(CCl)N1c2ccccc2NC(=O)C12CCCC2", -0.0709),
    ("O=C(CCl)NC1CCOc2ccccc21 (centres undefined)", -0.774),
    ("CNC(=O)C1(NC(=O)CCl)CCCCC1", -0.0513),
    ("Cc1cc(C(=O)NC2CCN(C(=O)CCl)CC2)no1", -0.256),
    ("O=C(CCl)NCCC1=CCCCC1", 0.16),
    ("O=C(CCl)NC1CCC(C(F)(F)F)CC1 (centres undefined)", -0.348),
    ("O=C(CCl)N(Cc1ccsc1)C1CC1", -0.0601),
    ("CCN1C(=O)C2CN(C(=O)CCl)CCN2C1=O (centres undefined)", 0.177),
    ("O=C(CCl)NCCc1ccc(F)cc1", 0.0794),
    ("Cc1ccc(C)c(Oc2ccc(CNC(=O)CCl)cn2)c1.Cl", -0.149),
    ("Cc1cccc(NC(=O)CCl)c1C", -0.291),
    ("Cc1c(C#N)c(NC(=O)CCl)n(Cc2ccco2)c1C", -0.0342),
    ("Cl.O=C(CCl)N[C@H]1C[C@@H](n2cccn2)C1", -0.324),
    ("COCC1C=CCCN1C(=O)CCl (centres undefined)", -0.0106),
    ("COc1cccc(CN(C)C(=O)CCl)c1", 0.0172),
    ("O=C(CCl)NCCc1ccc2c(c1)OCCO2", -0.414),
    ("O=C(CCl)N1CCN(c2nc3ccccc3o2)CC1", -0.434),
    ("Cl.O=C(CCl)N1CCn2cncc2C1", -0.133),
    ("Cc1c(NC(=O)CCl)c(=O)n(-c2ccccc2)n1C", -0.128),
    ("O=C(CCl)N1CCOCCC1c1ccccc1 (centres undefined)", 0.199),
    ("O=C(CCl)N1CCN(C(=O)Nc2ccccc2)CC1", 0.444),
    ("CN(C)C(=O)c1ccc(NC(=O)CCl)cc1", 0.0572),
    ("Cc1ccc(CC(NC(=O)CCl)c2ccccn2)cc1.Cl (centres undefined)", 0.248),
    ("O=C(O)C1Cc2ccccc2CN1C(=O)CCl (centres undefined)", -0.0629),
    ("COc1ccc(C2CCCN2C(=O)CCl)c(OC)c1 (centres undefined)", -0.0199),
    ("O=C(CCl)Nc1cc2c(cc1Cl)OCCCO2", 0.361),
    ("Cc1cccc(C(CNC(=O)CCl)N2CCOCC2)c1.Cl (centres undefined)", -0.28),
    ("O=C(CCl)N1CCC(c2ccn[nH]2)C1 (centres undefined)", 0.0756),
]
